- Test system: T-47D breast
- Protocol Summary: NCI-60 one-dose screen, 48 h
- Applied Conditions: 10 µM unless noted
Compounds without any hit were thinned out: in the full panel of roughly 83,000, 20% have a hit. The source made the active and inactive calls. Rule for the calls: active = growth percent below 10; inactive = the rest.
Outcome field: choose from yes = active, no = inactive

Reference set (5 entries):
Compound: CCOC(=O)c1c(C)nn(CC(O)c2ccccc2)c1NC(=O)Nc1cccc(F)c1 (stereo not given)
Assigned Class: no
//
Compound: C=CC(=O)NCCOc1cccc(Nc2cc(NCCCNC(=O)C3CCC3)c(Br)cn2)c1
Assigned Class: yes
//
Compound: Cc1nc2sc(C(=O)Nc3ccc(Cl)cc3)c(N)c2cc1C(O)c1ccccc1 (stereo not given)
Assigned Class: no
//
Compound: COc1ccc2cc(-c3ccc(-c4ccc(C(=N)N)s4)s3)ccc2c1
Assigned Class: yes
//
Compound: CC(=O)N(Cc1ccccc1)c1nc2ccc(O)c(CN(C)C)c2s1
Assigned Class: no

Identify the outcome logged in this assay for the compound shown: N#C/C(=C\c1ccc(Br)cc1)c1cc2ccccc2[nH]1 no

Identify the outcome logged in this assay for the compound shown: O=C(O)CCCc1cnc2c3sccc3nc(SCc3c(Cl)cccc3Cl)n12 no

Identify the outcome logged in this assay for the compound shown: CCNC(=O)Oc1ccc(/C(=C(/C)Cc2ccc(OC)cc2)c2ccc(OCCN3CCCCCC3)cc2)cc1 no

Identify the outcome logged in this assay for the compound shown: COc1cc(C(=O)c2c(-c3ccccc3)oc3c(OC)cccc23)cc(OC)c1O no

Identify the outcome logged in this assay for the compound shown: CCCCCCOC(=O)CC1=C(C)/C(=C/c2[nH]c(-c3ccc[nH]3)cc2OC)N=C1C yes
